AKT1 (Homo sapiens, UniProt P31749) measurements of pKi, listed per entry.
Sequence (P31749 whole entry): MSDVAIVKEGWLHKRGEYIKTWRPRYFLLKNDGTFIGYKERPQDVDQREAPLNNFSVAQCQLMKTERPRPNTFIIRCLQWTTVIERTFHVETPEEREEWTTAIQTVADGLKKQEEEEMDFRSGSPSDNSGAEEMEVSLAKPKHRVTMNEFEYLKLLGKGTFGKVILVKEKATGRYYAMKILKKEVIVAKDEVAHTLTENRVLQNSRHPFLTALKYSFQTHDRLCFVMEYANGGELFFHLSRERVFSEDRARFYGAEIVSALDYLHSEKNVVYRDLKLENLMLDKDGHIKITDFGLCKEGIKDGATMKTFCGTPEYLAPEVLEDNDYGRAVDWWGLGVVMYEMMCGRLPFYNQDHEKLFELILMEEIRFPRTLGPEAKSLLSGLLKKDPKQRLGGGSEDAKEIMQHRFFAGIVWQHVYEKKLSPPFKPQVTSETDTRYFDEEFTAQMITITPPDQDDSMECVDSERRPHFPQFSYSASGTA
As a rule, pKi stands for the negative log10 of the concentration, concentration in M.

Reference set, count: 2
Item Cc1cc(-c2ccccc2)nc2nc(NC(=O)c3ccc(O)c(O)c3)nn12 has what recorded pKi? 6.62

Item NC(=O)c1c(NC(=O)c2ccc(F)cc2F)sc2c1CCCCC2 has what recorded pKi? 5.38

***
Item O=c1[nH]c(-c2ccc(O)c(O)c2)nc2sc3c(c12)CCCC3 has what recorded pKi? 6.39

----------
test system: OCI-AML3; assay: CellTiter Blue cell viability assay; assay type: cell-based, human; conditions: OCI-AML3, 48 h; read-out: cellular IC50
Property Name: IC50 (µM)
Give just the numeric value; µM need not be written.

Form: Entry = Cc1ccc2nc(CN(CCN(Cc3nc4ccc(C)cc4[nH]3)Cc3nc4ccc(C)cc4[nH]3)Cc3nc4ccc(C)cc4[nH]3)[nH]c2c1 [NSC348884, reference compound] | System = OCI-AML3 | IC50 = ____ 6.6

Recorded values, source paper PMC9698716.
